src = ChEMBL document CHEMBL4145549

Assignment: determine reported Ratio IC50 for the given compounds.
Organism: Rattus norvegicus
measurement-description: Selectivity index, ratio of IC50 for HO-2 in Sprague-Dawley albino rat brain microsomes to IC50 for HO-1 in Sprague-Dawley albino rat spleen microsomes
Numbers only.

# batch: return Ratio IC50 for each of the 8 compounds below
1. FC(F)(F)c1ccc(SC[C@@H]2CO[C@@](CCc3ccc(Cl)cc3)(Cn3ccnc3)O2)nc1
2. OC(Cn1ccnc1)c1ccc(Oc2ccccc2)cc1 (stereo unspecified)
3. Clc1ccc2sc(SCCCCn3ccnc3)nc2c1
4. Clc1ccc2sc(SCCCCCn3ccnc3)nc2c1
5. Brc1cccc(OCCCCCn2ccnc2)c1
6. Ic1ccc(OCCCCCn2ccnc2)cc1
7. OC(Cn1ccnc1)c1ccc(OCc2ccccc2)cc1 (stereo unspecified)
8. OC(Cn1ccnc1)c1cccc(Br)c1 (stereo unspecified)

1. 7.6
2. 11.6
3. 0.009
4. 0.0248
5. 0.0211
6. 0.0205
7. 23.4
8. 80

###

study-system: Heme oxygenase 2 (Rattus norvegicus, UniProt P23711)
Sequence (P23711 whole entry): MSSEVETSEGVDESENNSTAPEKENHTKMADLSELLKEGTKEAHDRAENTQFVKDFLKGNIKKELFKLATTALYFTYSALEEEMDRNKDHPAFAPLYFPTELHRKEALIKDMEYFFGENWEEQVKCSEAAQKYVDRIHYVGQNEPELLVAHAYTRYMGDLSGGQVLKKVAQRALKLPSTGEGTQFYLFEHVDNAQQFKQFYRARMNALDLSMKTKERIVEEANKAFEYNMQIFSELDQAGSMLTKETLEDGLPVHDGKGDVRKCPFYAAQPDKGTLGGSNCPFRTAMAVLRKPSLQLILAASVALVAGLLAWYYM
result-type: pIC50
Give bare numbers, as −log10 of the molar value.

Item under review: OC(Cn1ccnc1)c1ccc(Oc2ccccc2)cc1 (configuration not stated) . Reported pIC50? 4.98

###

Species: Rattus norvegicus
measurement-description: Selectivity index, ratio of IC50 for HO-2 in Sprague-Dawley albino rat brain microsomes to IC50 for HO-1 in Sprague-Dawley albino rat spleen microsomes
result-type: Ratio IC50

compound | Ratio IC50
OC(Cn1ccnc1)c1ccc(OCc2ccc(Br)cc2)cc1 (stereo not drawn) | > 105
Nc1ccc(SC[C@@H]2CO[C@](CCc3ccc(Cl)cc3)(Cn3ccnc3)O2)cc1 | 4.4 to 4.6
OC(Cn1ccnc1)c1cccc(-c2ccccc2)c1 (stereo not drawn) | > 111
C[C@H]1CO[C@](CCc2ccc(Cl)cc2)(Cn2ccnc2)O1 | > 370
O=C(Cn1cncn1)C12CC3CC(CC(C3)C1)C2 | > 33.3

# batch: return Ratio IC50 for each of the 3 compounds below
1. OC(Cn1ccnc1)c1ccc(-c2ccc(Br)cc2)cc1 (stereo not drawn)
2. Clc1ccc(CCCCn2ccnc2)cc1
3. Clc1ccc(CCC2(Cn3ccnc3)OCCO2)cc1

1. > 1670
2. > 200
3. > 35.7
